Target: Focal adhesion kinase 1 (Homo sapiens) (UniProt Q05397)
Sequence (Q05397 whole entry, looked up): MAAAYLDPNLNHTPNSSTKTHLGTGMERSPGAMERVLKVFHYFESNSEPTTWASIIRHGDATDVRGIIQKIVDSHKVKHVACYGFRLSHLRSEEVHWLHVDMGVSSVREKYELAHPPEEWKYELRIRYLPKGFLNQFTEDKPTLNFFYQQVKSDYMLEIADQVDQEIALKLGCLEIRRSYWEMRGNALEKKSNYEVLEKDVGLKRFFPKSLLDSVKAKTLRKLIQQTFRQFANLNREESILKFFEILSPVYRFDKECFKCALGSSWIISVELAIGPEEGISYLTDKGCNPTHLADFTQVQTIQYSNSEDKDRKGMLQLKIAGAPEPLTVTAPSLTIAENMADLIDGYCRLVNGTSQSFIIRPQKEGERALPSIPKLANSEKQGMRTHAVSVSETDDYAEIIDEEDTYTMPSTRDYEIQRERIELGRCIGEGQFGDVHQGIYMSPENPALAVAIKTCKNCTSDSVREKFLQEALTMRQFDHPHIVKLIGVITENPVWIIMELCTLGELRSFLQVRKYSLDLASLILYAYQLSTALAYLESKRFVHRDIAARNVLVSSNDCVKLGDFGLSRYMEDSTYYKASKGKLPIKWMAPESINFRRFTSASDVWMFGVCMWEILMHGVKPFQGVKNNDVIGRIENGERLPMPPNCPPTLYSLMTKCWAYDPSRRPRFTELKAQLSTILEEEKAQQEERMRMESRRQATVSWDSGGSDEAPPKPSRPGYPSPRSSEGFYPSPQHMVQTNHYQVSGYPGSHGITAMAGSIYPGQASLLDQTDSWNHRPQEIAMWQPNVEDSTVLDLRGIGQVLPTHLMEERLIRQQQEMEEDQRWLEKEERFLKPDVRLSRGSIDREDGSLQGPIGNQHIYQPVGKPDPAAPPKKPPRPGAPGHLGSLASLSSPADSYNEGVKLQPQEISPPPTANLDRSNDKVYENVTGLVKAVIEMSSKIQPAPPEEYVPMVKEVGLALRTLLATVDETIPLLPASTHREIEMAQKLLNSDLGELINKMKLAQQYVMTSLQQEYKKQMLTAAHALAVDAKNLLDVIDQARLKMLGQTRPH
Test: PTK2 protein binding on printed compound slides – biochemical, small-molecule microarray, 635/667 nm fluorescence, BSA, DTT, primary screen (AID 1130);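 also: composite of spot emission at 667 nm and signal to noise over triplicate slides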
Details: 635 nm fluorescence, higher = more signal
composite z-score values, listed per item
Number, no unit, nothing else.

| compound | valueReported |
| --- | --- |
| C=CCN1C(=O)[C@]2(CCC(=O)OC(C)(C)C)N=C(c3ccc(OCCCO)cc3)O[C@@H]2c2ccccc21 | 0.469 |
| [N-]=[N+]=Nc1ccccc1[C@@H]1OC(c2ccc(OCCCO)cc2)=N[C@]1(Cc1ccccc1)C(=O)O | 0.854 |

input: I would be grateful if you could share the reported composite z-score for COc1cc(NN2C(C(O)c3ccco3)C=CC3C(=O)N(C)C(=O)C32)cc(OC)c1OC (configuration not stated) .
output: -0.422

input: For the compound CCOC(=O)C1=C[C@@H](c2ccccc2)N(S(=O)(=O)c2ccc(C)cc2)[C@H]1c1ccc(OC)cc1 , what composite z-score is on record?
output: 0.501

input: Which value of composite z-score has been reported for CCCCC(O)C1C=CC2C(=O)N(C)C(=O)C2N1N(c1ccccc1)c1ccccc1 (configuration not stated) in the records?
output: 0.912

input: Can you look up the measured composite z-score of C=CCOC(=O)[C@@H]1[C@H]2C(=O)O[C@H](c3ccccc3)[C@H](c3ccccc3)N2[C@H](c2ccc(OCCOC(=O)[C@@H]3C[C@@H]4C(=O)N[C@@H](CCCC[N+](C)(C)C)C(=O)N4[C@@H]3c3ccc(O)cc3)cc2)[C@@]12C(=O)Nc1ccc(I)cc12 for me?
output: 0.67

input: Data request, read-out composite z-score, for OCCCC1=CC(c2ccc(CN3CCCC3)cc2)N(Cc2cc3c(cc2Br)OCO3)CC1 (configuration not stated)
output: 0.172

###

Biological target: Luciferin 4-monooxygenase (Photinus pyralis) (UniProt P08659)
Sequence (P08659 whole entry, looked up): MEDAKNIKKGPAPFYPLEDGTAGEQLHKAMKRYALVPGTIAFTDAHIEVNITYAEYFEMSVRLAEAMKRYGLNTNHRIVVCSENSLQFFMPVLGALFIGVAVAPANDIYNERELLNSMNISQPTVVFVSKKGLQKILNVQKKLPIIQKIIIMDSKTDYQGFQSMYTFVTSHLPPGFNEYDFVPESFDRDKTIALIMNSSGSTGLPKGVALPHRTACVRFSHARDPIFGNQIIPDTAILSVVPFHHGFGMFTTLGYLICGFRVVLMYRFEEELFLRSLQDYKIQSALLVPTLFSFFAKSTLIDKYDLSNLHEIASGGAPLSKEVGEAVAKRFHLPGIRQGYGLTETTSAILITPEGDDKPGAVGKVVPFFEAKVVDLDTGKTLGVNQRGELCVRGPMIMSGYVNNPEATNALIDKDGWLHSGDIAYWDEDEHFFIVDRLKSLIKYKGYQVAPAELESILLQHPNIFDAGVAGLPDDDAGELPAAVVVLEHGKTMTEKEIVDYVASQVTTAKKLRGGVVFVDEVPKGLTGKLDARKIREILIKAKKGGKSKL
Test: inhibition of purified Photinus pyralis luciferase – biochemical, luminescence, purified enzyme, 2006 set, primary screen (AID 1141);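 also: cell-free assay with purified firefly luciferase at 100 ng per well in PBS; test concentration not given here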
Conditions: purified firefly luciferase, SteadyGlo luminescence, 30 min; higher = more signal, called active from +8 up or from −8 down
Decide by z-score: equal to or exceeding -0.7 means label 1, less means label 0.

Record excerpt, results attached:
| compound | group |
| --- | --- |
| COC(=O)C1=CC(CCCO)=CC(c2cccs2)N(C)C=C1C(=O)OC (stereo not drawn) | label 1 |
| CCOc1cc(C(O)C2C=CC3C(=O)NC(=O)C3N2Nc2ccc(Cl)cc2Cl)ccc1O (stereo not drawn) | label 1 |
| CC1CC/C=C\[C@H]2OC34C=CCN(Cc5ccccc5)C(=O)[C@H]3N(C(CO)C(C)C)C(=O)[C@@H]4C2C(=O)O1 (stereo partly drawn) | label 0 |
| CCCCN1CC=CC23O[C@@H]4/C=C\CCCOC(=O)C4[C@H]2C(=O)N(CCO)[C@@H]3C1=O (stereo partly drawn) | label 1 |
| CCCCCN1CC=CC23O[C@@H]4C=CCCOC(=O)C4[C@H]2C(=O)N(CCCCCCO)[C@@H]3C1=O (stereo partly drawn) | label 1 |
| CCCC=C(CCC)[C@@H](NS(=O)(=O)CC12CCC(CC1=O)C2(C)C)c1ccc(C(=O)OC)cc1 (stereo partly drawn) | label 1 |
| CCCC=C(CCC)[C@@H](NC(=O)c1cccs1)c1ccc(C(=O)OC)cc1 | label 1 |
| COc1ccc([Si](C)(C)[C@@H]2[C@@H](CCO)O[C@]3(C(=O)N(Cc4cccc(NC(=O)[C@H](C)O)c4)c4ccccc43)[C@H]2C)cc1 | label 1 |

input: Record CCCCCC1=C2CNC(C)(C(=O)OC)C=C2C(C)C1=O (stereo not drawn) ; criterion: z-score no lower than -0.7. Met?
output: label 1

input: Decide: z-score of CCOC(=O)C[C@H]1[C@H](OC(=O)c2ccc(C(=O)c3ccccc3)cc2)[C@@H](NC(=O)CC(C)C)c2cc(OCCCO)ccc2N1C(=O)c1ccccc1 >= -0.7?
output: label 1

input: Check the entry COC(=O)[C@@]1(Cc2ccc(OC)cc2)[C@H]2c3cc(C(=O)N(C)C)n(Cc4ccc(C)o4)c3C[C@H]2CN1C(=O)c1ccccc1 : does z-score equal or exceed -0.7?
output: label 0

input: Evaluate C=CC[C@@H](OC(=O)Nc1ccc(OC)cc1)c1ccc(O)c(F)c1 : z-score at minimum -0.7?
output: label 0

input: Is z-score at least -0.7? Consider COc1ccc([Si](C)(C)[C@H]2[C@H](CC(=O)N3CCC[C@H]3CO)O[C@@]3(C(=O)N(Cc4ccc(N5CCOC5=O)cc4)c4ccccc43)[C@@H]2C)cc1
output: label 1

input: Does the reported z-score for CC(C)N1CC=CC23O[C@@H]4C=CCCOC(=O)C4[C@H]2C(=O)N(CCCO)[C@@H]3C1=O (stereo partly drawn) fall at or above the -0.7 mark?
output: label 1

input: # check: z-score of CC(C)N1C(=O)C[C@@](C(=O)O)(c2ccc([N+](=O)[O-])cc2)[C@H]1c1ccc(CO)cc1 is greater than or equal to -0.7
output: label 0

input: Could you tell me if the measured z-score of [N-]=[N+]=Nc1ccccc1[C@@H]1OC(c2ccc(OCCCO)cc2)=N[C@]1(Cc1ccccc1)C(=O)N1CCCCC1 reaches -0.7 or more?
output: label 0

input: Is z-score at least -0.7? Consider COc1cc(NN2C(C(O)c3ccco3)C=CC3C(=O)N(C)C(=O)C32)cc(OC)c1OC (stereo not drawn)
output: label 1

input: Form field: z-score at least -0.7? Entry: COc1ccccc1CN1C(=O)c2ccccc2[C@](Cc2ccccc2I)(C(=O)O)[C@@H]1c1ccc(CO)cc1
output: label 0

input: Could you please find out whether CCOC(=O)[C@@H]1CCCCN1C(=O)C(=O)OC has z-score that meets -0.7 or exceeds it?
output: label 1

input: Given C=CC[C@]1(C(=O)N2CCCCC2)N=C(c2ccc(OCCCO)cc2)O[C@H]1c1ccccc1CN=[N+]=[N-] , state whether its z-score is at least -0.7.
output: label 1

input: Check if z-score >= -0.7 (inclusive). Item: COC(=O)C/C=C/C[C@]1(O)C(=O)N(C)c2ccccc21
output: label 0

input: Kindly determine if z-score recorded for CC1=C2[C@@H](CCc3ccccc3)OB(O)C[C@@H]2[C@@H]2C(=O)N(C)C(=O)[C@@H]2C1 is above or exactly -0.7.
output: label 1

input: Hi team, for C=C[C@@H](CO)N(Cc1ccc(OC)cc1)S(=O)(=O)c1ccc(Br)cc1 , is the recorded z-score at or above -0.7?
output: label 1

input: Could you please find out whether O=C(O)[C@@H]1C[C@@H]2C(=O)N3CCC[C@H]3C(=O)N2[C@@H]1c1ccc(O)cc1 has z-score that meets -0.7 or exceeds it?
output: label 0

input: Entry Cc1ccc(S[C@]2(C(=O)NCC(F)(F)F)CC(=O)N(Cc3cc(C(F)(F)F)cc(C(F)(F)F)c3)[C@@H]2c2ccc(CO)cc2I)cc1 : is its z-score no less than -0.7?
output: label 1

input: Is z-score for C=CCNC(=O)[C@@H]1[C@H]2C(=O)O[C@H](c3ccccc3)[C@H](c3ccccc3)N2[C@H](c2ccc(O)cc2)[C@@]12C(=O)N(C(=O)OCCOC)c1ccc(C#CC3=CCCCC3)cc12 at or above -0.7?
output: label 0

input: Is the recorded value of z-score equal to or greater than -0.7 for this compound? CC1=C2[C@@H](CCc3ccccc3)OB(O)C[C@@H]2[C@@H]2C(=O)N(Cc3ccccc3)C(=O)[C@@H]2C1
output: label 1

input: Entry CC(C)N1C(=O)c2ccccc2[C@@H](C(=O)NCCN2CCOCC2)[C@@H]1c1ccc(CO)cc1 : is its z-score no less than -0.7?
output: label 1

input: Is reported z-score greater than or equal to -0.7 here: CCCCN1CC=CC23O[C@@H]4/C=C\CCC(C)OC(=O)C4[C@H]2C(=O)N(CCCO)[C@@H]3C1=O (stereo partly drawn)
output: label 1

input: Check if z-score >= -0.7 (inclusive). Item: O=C1O[C@@H](c2ccccc2)[C@@H](c2ccccc2)N2[C@@H](c3ccc(O)cc3)[C@]3(C(=O)Nc4ccc(C#CCCO)cc43)[C@@H](C(=O)N3CCN(c4ncccn4)CC3)[C@H]12
output: label 1

input: Does O=C1OCCC=C[C@H]2OC34C=CCN(c5ccc6ccccc6c5)C(=O)[C@H]3N(CCCO)C(=O)[C@@H]4C12 (stereo partly drawn) have a reported z-score of at least -0.7?
output: label 1

input: Decide: is the reported value of z-score for Oc1ccc2cc[n+](Cc3cc4c(cc3Br)OCO4)cc2c1 equal to or greater than -0.7?
output: label 0
